# test_summary: Pharmacokinetics after single-dose intravenous administration in rats
# test_settings: rat, in vivo
Positions of bridges follow the written chain, without caps; N, C: chain ends. Non-standard residues stand in square brackets, D forms with d. Residues, ends and D or L forms follow the SMILES beside them. *: point of attachment. Gly(octyl) = CCCCCCCC[C@H](N)C(=O)O; Octanoyl = CCCCCCCC(=O)*; Dab = NCC[C@H](N)C(=O)O

compound: CCCCCCCC[C@@H]1NC(=O)[C@@H](Cc2ccccc2)NC(=O)[C@H](CCN)NC(=O)[C@@H](NC(=O)[C@H](CCN)NC(=O)[C@@H](NC(=O)[C@H](CCN)NC(=O)CCCCCCC)[C@@H](C)O)CCNC(=O)[C@H]([C@@H](C)O)NC(=O)[C@H](CCN)NC(=O)[C@H](CCN)NC1=O [FADDI-002] (Octanoyl-[Dab]T[Dab][Dab][Dab][dF][Gly(octyl)][Dab][Dab]T; lactam 4-C)
clearance: 0.66 to 1.3 mL/min/kg

----------
# test_summary: Pharmacokinetics after single-dose intravenous administration in rats
# test_settings: rat, in vivo
Positions of bridges follow the written chain, without caps; N, C: chain ends. Non-standard residues stand in square brackets, D forms with d. Residues, ends and D or L forms follow the SMILES beside them. *: point of attachment. Gly(octyl) = CCCCCCCC[C@H](N)C(=O)O; Octanoyl = CCCCCCCC(=O)*; Dab = NCC[C@H](N)C(=O)O
value_kind: Vd

compound: CCCCCCCC[C@@H]1NC(=O)[C@@H](Cc2ccccc2)NC(=O)[C@H](CCN)NC(=O)[C@@H](NC(=O)[C@H](CCN)NC(=O)[C@@H](NC(=O)[C@H](CCN)NC(=O)CCCCCCC)[C@@H](C)O)CCNC(=O)[C@H]([C@@H](C)O)NC(=O)[C@H](CCN)NC(=O)[C@H](CCN)NC1=O [FADDI-002] (Octanoyl-[Dab]T[Dab][Dab][Dab][dF][Gly(octyl)][Dab][Dab]T; lactam 4-C)
value_kind: Vd
reading: 0.195 to 0.313 L/kg

The reported measurements were obtained from paper PMC4033650.
